src = patent US9951058B2

- assay explanation: in vitro
- condition info: human
quantity measured: CC50

# compound, quantity measured, result
rows = [
    ("CC(C)c1ccc2c(c1)OC1(O)c3ccccc3C(=O)C21NC(=O)C(=O)c1cccs1 (centres unmarked)", "CC50", "8.57 µg/mL"),
    ("CC(C)c1ccc2c(c1)OC1(O)c3ccccc3C(=O)C21NC(=O)C(=O)CBr (centres unmarked)", "CC50", "> 10 µg/mL"),
    ("CCOC(=O)C(=O)NC12C(=O)c3cccc([N+](=O)[O-])c3C1(O)Oc1cc(C(C)C)ccc12 (centres unmarked)", "CC50", "> 10 µg/mL"),
    ("CC(C)c1ccc2c(c1)OC1(O)c3ccccc3C(=O)C21OC(=O)NCCNC(=O)OC(C)(C)C (centres unmarked)", "CC50", "> 10 µg/mL"),
    ("Cc1cc2c(cc1C)C1(NC(=O)C(=O)c3ccccc3)C(=O)c3ccccc3C1(O)O2 (centres unmarked)", "CC50", "> 10 µg/mL"),
    ("COc1cc(C(=O)C(=O)NC23C(=O)c4cccc([N+](=O)[O-])c4C2(O)Oc2cc(C(C)C)ccc23)cc(OC)c1OC (centres unmarked)", "CC50", "> 10 µg/mL"),
    ("CC(C)c1ccc2c(c1)OC1(O)c3cccc(N)c3C(=O)C21NC(=O)C(=O)N(C)C (centres unmarked)", "CC50", "> 10 µg/mL"),
    ("CC(C)c1ccc2c(c1)OC1(O)c3ccccc3C(=O)C21NC(=O)C(=O)CCc1ccccc1 (centres unmarked)", "CC50", "9.5 µg/mL"),
]
